Experiment: Apparent permeability co-efficient from basolateral to apical side in human Caco2 cells
Assay type: ADME, cell-based
Condition Context: Caco-2
Measurement Type: Papp B→A (×10⁻⁶ cm/s)
Kindly answer with a numeric value in ×10⁻⁶ cm/s, unit omitted.

The reported value for Cc1nc(NC2CCCC2)sc1-c1ccnc(Nc2ccc(N3CCOCC3)cn2)n1 in terms of Papp B→A is 3.98

###

Experiment: Clearance in BALB/c mouse at 2 mg/kg, iv up to 24 hrs by LC-MS/MS analysis
Type: ADME, organism-based
Condition Context: in vivo
Measurement Type: clearance (mL/min/kg)
Kindly answer with a numeric value in mL/min/kg, unit omitted.

The reported value for Cc1nc(NC2CCCC2)sc1-c1ccnc(Nc2ccc(N3CCOCC3)cn2)n1 in terms of clearance is 58.3

###

Experiment: Efflux ratio of apparent permeability co-efficient from basolateral to apical side over apical to basolateral side in human Caco2 cells
Format: ADME, cell-based
Condition Context: Caco-2
Measurement Type: efflux ratio

The reported value for Cc1nc(NC2CCCC2)sc1-c1ccnc(Nc2ccc(N3CCOCC3)cn2)n1 in terms of efflux ratio is 0.396 to 4

###

Known Ki of a selection of compounds
Assay System: CDK2/Cyclin A2 (Homo sapiens)
Experiment: Inhibition of CDK2/cyclin A (unknown origin) in presence of [gamma-33P]-ATP […]
Condition Context: read-out: Ki(app)
Kindly answer with a numeric value in µM, unit omitted.

Before answering, review these 2 worked examples.
{"columns": ["Compound String", "Measurement Type", "Observed"],
 "data": [
  ["Cc1nc(NC2CCCC2)sc1-c1nc(Nc2ccc(N3CCN(C)CC3)cn2)ncc1F", "Ki", 0.103],
  ["Cc1nc(NC2CCCC2)sc1-c1ccnc(Nc2ccc(N3CCOCC3)cn2)n1", "Ki", 4.68]
]}

Continue with the next compound.
The reported value for Cc1nc(NC2CCCC2)sc1-c1ccnc(Nc2ccc(N3CCN(S(C)(=O)=O)CC3)cn2)n1 in terms of Ki is 0.077

###

Experiment: AUC (0 to t) in albino Wistar rat at 20 mg/kg administered via oral gavage measured up to 24 hrs by LC-MS/MS analysis
Format: ADME, organism-based
Set-up: dose 20 mg/kg, time < 24 hr, route oral
Condition Context: in vivo
Measurement Type: AUC(0-t) at 24 h (µM·h)
Kindly answer with a numeric value in µM·h, unit omitted.

The reported value for Cc1nc(NC2CCCC2)sc1-c1ccnc(Nc2ccc(N3CCOCC3)cn2)n1 in terms of AUC(0-t) at 24 h is 15.9

###

Assay System: Cytochrome P450 2D6 (Homo sapiens, UniProt P10635)
Sequence (P10635 whole entry): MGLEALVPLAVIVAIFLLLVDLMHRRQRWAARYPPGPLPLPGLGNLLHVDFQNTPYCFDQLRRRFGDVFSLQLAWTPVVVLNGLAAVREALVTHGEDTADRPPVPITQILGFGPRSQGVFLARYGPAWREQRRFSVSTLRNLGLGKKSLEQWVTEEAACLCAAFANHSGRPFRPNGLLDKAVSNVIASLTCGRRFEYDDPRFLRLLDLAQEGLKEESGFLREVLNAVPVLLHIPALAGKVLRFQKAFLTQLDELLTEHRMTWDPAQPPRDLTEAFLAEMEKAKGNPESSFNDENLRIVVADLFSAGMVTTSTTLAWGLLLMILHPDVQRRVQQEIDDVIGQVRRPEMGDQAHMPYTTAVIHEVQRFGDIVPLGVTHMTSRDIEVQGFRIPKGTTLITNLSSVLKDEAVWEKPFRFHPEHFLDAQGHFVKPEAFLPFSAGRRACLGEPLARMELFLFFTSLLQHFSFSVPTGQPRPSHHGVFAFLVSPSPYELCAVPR
Measurement Type: IC50

GET /values?item= Cc1nc(NC2CCCC2)sc1-c1ccnc(Nc2ccc(N3CCOCC3)cn2)n1 &system= Cytochrome P450 2D6 (Homo sapiens, UniProt P10635) returns IC50: > 25 µM

###

Experiment: Half-life in albino Wistar rat at 5 mg/kg, iv up to 24 hrs by LC-MS/MS analysis
Type: ADME, organism-based
Condition Context: in vivo
Measurement Type: half-life (h)
Kindly answer with a numeric value in h, unit omitted.

The reported value for Cc1nc(NC2CCCC2)sc1-c1ccnc(Nc2ccc(N3CCOCC3)cn2)n1 in terms of half-life is 4.2

###

Assay System: Cyclin-dependent kinase 7/ cyclin H (Homo sapiens, UniProt P50613)
Sequence (P51946 whole entry): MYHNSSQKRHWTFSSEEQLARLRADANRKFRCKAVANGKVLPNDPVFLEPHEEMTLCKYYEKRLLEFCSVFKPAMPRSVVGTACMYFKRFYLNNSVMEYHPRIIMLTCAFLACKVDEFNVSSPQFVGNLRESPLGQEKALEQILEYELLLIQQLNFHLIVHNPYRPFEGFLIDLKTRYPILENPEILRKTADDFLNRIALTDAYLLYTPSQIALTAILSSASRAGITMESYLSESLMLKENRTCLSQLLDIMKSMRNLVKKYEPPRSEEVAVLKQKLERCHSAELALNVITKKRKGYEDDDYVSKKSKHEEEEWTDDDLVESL
Sequence (P50613 whole entry): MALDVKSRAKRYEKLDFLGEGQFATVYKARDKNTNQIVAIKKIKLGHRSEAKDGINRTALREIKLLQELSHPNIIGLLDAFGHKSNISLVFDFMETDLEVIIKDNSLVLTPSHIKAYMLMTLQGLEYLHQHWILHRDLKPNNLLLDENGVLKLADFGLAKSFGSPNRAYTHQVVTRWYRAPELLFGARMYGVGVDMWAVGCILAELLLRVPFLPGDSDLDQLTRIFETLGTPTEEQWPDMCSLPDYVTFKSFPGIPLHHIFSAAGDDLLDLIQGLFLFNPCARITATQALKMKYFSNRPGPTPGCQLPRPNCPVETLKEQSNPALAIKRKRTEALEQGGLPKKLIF
Experiment: Inhibition of CDK7/cyclin H (unknown origin) in presence of [gamma-33P]-ATP […]
Condition Context: read-out: Ki(app)
pKi: −log10 of the molar value.
Short version: pKi at least 6 is criterion met, less is criterion not met.

{"columns": ["Molecule", "Group Label"],
 "data": [
  ["Cc1nc(NC2CCCC2)sc1-c1ccnc(Nc2ccc(N3CCN(S(C)(=O)=O)CC3)cn2)n1", "criterion not met"],
  ["Cc1nc(Nc2ccccc2)sc1-c1ccnc(Nc2ccc(N3CCNCC3)cn2)n1", "criterion not met"],
  ["CC(=O)N1CCN(c2ccc(Nc3nccc(-c4sc(NC(C)C)nc4C)n3)nc2)CC1", "criterion not met"],
  ["CCN1CCN(Cc2ccc(Nc3ncc(F)c(-c4sc(NC5CCCC5)nc4C)n3)nc2)CC1 [ULECACICLIB]", "criterion met"],
  ["CCN1CCN(Cc2ccc(Nc3nccc(-c4sc(NC5CCCC5)nc4C)n3)nc2)CC1", "criterion met"],
  ["Cc1nc(NC2CCCC2)sc1-c1nc(Nc2ccc(N3CCN(C)CC3)cn2)ncc1F", "criterion not met"]
]}

Does the molecule CN1CCN(c2ccc(Nc3nccc(-c4sc(NC5CCCC5)nc4C(F)(F)F)n3)nc2)CC1 have recorded pKi that is 6 or more?
criterion met

Does the molecule Cc1nc(N(C)C2CCCC2)sc1-c1ccnc(Nc2ccc(N3CCN(C)CC3)cn2)n1 have recorded pKi that is 6 or more?
criterion not met

Does the molecule CC(=O)N1CCN(c2ccc(Nc3ncc(F)c(-c4sc(NC5CCCC5)nc4C)n3)nc2)CC1 have recorded pKi that is 6 or more?
criterion not met

Does the molecule Cc1nc(NC2CCCC2)sc1-c1nc(Nc2ccc(N3CCOCC3)cn2)ncc1F have recorded pKi that is 6 or more?
criterion not met

Does the molecule Cc1nc(N(C)C2CCCC2)sc1-c1ccnc(Nc2ccc(N3CCNCC3)cn2)n1 have recorded pKi that is 6 or more?
criterion not met

Does the molecule FC(F)(F)c1nc(NC2CCCC2)sc1-c1ccnc(Nc2ccc(N3CCNCC3)cn2)n1 have recorded pKi that is 6 or more?
criterion met
